Where do the numbers come from? From paper PMC9578445.

# system: hERG (Homo sapiens, UniProt Q12809)
# Sequence (Q12809 whole entry): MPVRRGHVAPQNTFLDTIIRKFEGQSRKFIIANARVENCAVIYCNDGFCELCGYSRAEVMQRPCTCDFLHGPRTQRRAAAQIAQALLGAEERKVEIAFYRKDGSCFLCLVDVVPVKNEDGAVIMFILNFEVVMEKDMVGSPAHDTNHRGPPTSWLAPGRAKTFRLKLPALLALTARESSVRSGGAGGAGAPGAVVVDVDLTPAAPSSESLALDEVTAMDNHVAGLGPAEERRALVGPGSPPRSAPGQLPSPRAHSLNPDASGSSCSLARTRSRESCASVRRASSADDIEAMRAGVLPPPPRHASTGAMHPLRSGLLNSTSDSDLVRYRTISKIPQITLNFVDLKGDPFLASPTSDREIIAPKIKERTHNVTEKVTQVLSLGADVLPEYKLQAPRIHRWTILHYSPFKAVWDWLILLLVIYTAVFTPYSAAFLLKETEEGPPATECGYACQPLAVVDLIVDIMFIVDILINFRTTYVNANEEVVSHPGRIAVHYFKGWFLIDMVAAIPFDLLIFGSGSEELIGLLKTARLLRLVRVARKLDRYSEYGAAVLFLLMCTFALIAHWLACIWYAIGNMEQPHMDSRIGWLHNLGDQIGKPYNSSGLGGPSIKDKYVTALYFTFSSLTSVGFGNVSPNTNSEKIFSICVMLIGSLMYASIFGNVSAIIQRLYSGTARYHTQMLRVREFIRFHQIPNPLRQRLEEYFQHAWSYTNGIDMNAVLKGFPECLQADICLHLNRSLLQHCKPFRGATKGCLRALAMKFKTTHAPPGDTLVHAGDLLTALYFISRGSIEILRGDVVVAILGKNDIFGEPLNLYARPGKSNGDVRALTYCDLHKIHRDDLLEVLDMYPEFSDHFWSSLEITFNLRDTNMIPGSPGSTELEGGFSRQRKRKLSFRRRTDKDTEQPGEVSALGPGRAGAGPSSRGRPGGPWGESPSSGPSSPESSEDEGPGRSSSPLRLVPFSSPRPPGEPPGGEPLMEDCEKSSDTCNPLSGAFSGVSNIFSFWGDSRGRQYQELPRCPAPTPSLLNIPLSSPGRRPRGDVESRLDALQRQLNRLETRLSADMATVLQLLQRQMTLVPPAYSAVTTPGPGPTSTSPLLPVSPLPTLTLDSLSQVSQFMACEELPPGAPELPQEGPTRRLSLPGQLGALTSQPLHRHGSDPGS
# assayOverview: Functional Ion Channel Panel hERG
# Type: biochemical
# conditionsUsed: read-out: hERG %inh
parameter: inhibition at 30 µM (%)
Give the number; % is assumed, so skip it.

QUERY: Looking for the measured inhibition at 30 µM of `O=S(=O)(Nc1nccs1)c1cc(Cl)c(NCCCCNC[C@H]2CCCN2)cc1F` , can you help?
RESULT: 22

* * *

# system: UniProt O88420
# Sequence (O88420 whole entry): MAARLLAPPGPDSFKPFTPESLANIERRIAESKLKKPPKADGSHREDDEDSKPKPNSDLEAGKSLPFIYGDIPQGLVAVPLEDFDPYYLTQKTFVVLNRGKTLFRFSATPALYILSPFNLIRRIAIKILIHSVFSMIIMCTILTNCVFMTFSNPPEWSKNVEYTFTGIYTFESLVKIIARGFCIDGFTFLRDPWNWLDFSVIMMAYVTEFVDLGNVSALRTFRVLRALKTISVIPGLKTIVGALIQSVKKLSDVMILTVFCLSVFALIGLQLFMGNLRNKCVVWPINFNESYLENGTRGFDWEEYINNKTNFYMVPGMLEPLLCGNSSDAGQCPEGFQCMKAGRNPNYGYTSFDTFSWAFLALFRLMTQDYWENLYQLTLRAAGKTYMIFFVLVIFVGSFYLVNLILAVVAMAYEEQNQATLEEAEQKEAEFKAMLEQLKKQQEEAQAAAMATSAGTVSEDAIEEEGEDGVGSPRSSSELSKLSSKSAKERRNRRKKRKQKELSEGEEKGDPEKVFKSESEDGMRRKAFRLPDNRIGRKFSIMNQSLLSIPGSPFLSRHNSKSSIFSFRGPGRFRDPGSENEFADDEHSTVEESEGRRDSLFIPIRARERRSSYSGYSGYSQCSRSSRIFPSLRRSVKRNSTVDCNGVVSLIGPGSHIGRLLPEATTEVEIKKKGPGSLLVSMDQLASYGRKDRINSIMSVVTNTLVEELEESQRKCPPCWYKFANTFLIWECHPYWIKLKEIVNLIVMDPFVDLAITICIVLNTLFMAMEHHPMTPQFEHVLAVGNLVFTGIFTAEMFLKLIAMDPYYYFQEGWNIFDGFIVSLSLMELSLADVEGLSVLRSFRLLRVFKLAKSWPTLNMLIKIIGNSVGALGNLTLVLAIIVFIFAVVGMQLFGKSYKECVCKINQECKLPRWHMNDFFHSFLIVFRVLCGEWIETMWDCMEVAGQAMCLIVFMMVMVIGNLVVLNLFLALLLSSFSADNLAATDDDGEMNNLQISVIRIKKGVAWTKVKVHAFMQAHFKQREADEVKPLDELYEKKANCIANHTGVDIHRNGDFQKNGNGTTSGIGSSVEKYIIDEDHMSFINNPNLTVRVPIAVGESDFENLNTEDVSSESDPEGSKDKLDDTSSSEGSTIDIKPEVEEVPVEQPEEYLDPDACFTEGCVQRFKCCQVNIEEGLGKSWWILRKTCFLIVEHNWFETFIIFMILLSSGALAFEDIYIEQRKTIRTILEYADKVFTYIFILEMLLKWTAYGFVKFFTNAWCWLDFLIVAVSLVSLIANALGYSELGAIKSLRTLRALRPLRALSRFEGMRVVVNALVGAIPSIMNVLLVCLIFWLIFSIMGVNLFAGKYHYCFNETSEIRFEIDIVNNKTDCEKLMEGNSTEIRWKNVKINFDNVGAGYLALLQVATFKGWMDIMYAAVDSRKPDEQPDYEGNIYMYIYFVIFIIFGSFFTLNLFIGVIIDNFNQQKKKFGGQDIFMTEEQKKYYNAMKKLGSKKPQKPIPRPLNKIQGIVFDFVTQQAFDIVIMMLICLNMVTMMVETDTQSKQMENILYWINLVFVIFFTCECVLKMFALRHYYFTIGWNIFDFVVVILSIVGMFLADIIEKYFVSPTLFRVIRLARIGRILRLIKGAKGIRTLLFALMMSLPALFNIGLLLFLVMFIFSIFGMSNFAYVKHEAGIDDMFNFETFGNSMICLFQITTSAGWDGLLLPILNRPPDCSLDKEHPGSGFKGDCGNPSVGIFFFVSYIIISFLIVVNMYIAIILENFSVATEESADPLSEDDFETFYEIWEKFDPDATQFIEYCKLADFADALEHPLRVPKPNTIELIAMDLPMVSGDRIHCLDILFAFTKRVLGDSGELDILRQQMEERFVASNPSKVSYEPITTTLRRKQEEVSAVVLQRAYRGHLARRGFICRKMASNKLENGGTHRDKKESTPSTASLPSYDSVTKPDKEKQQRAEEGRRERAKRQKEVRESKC
# assayOverview: PatchXpress automated patch clamp, hyperpolarized-state protocol
# conditionsUsed: HEK cells, hyperpolarized protocol
parameter: IC50 (µM)
The answer is to be given in µM; state only the numeric part.

// solved cases for IC50 follow
{"columns": ["chemicalStructure", "IC50 / µM"],
 "data": [
  ["O=S(=O)(Nc1nccs1)c1cc(Cl)c(NCCCCNC[C@H]2CCCN2)cc1F", 19],
  ["N#Cc1cc(S(=O)(=O)Nc2cscn2)ccc1Oc1ccc(Cl)cc1-c1ccnn1C1CNC1", 7.4]
]}

Now consider the entry below.
QUERY: IC50 for `C[C@H](c1cccc2c1CNCC2)n1c(=O)oc2cc(S(=O)(=O)Nc3ncns3)ccc21` ?
RESULT: 8.1
